Each entry below lists one item and its recorded Affinity by SPR value.
# experimental system: T1, CD47 protein (construct not stated; SPR antigen, CD47 coated ELISA plates) (Homo sapiens (Human), UniProt Q08722 19-139, limits assumed)
# T1 construct: also called the antigen
# test method notes: SPR (Biacore T100), affinity (nM) as grade; legend +: >10 nM and <40 nM

binder	result
ABU4 (antibody, V domains shown, Murine hybridoma monoclonal antibody) VH: QVQLQQSGPQLVRPGASVKISCKTSGYSFTNYWMQWVKQRPGQGLEWIGMIDPSDSESRLNQKFKDKATLTVDKSSSTAYMQLSSPTFEDSAVYYCARRGSPMITSFAYWGQGTLVTVSA VL: DVQITQSPSFLAASPGETITINCRASKNIGKYLAWFQEKPGKTNKLLIYSGSTLQSGIPSRFSGSGSGTDFTLTISSLEPEDFAIYYCQQHNEYPYTFGGGTKLEIK	10 to 40 nM

IN: Look up Affinity by SPR for this binder: ABU3 (antibody, V domains shown, Murine hybridoma monoclonal antibody) VH: EVQLQQSGAELVKPGASVKLSCTASGFTIKDTYMHWVKQRPEQGLEWIGRIDPAKDNTKYDPKFQGKATITLDTSSNIAYLQLSSLTSEDTAVYFCARGHYGSSYVVYWGQGTLVTVSA VL: NILMTQSPKSMSMSVGERVTLSCKASENVGTYVSWYQQKPDQSPKLLIYGASNRYTGVPDRFTGSGSATDFTLTISSVQAEDLADYHCGQSYSYPLTFGAGTKLELK
OUT: 10 to 40 nM
